Test: chemical genetic growth profiling, strain panel (AID 1159580);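 note: tested at 20 µM; growth read once vehicle control cultures reached saturation at 30 °C; 1 = growth at the plate median or of vehicle wells; lower values mean less growth of the strain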
Conditions: S. cerevisiae deletion strains, growth OD, locus YEL003W, strain gim4, stronger effect = lower value
Hit rate of the full screen: of about 5,500 compounds, about 2,000 (36%) were called active. Not shown: some 18% with an inconclusive outcome. Some of the results follow.
Quick list: normalized growth per entry.
Lab note: jot the number down without any unit.

Cc1cc2nc3c(=O)[nH]c(=O)nc-3n(CC(O)C(O)C(O)CO)c2cc1C (stereo not drawn) = 0.907
Cn1cnc2c1c(=O)[nH]c(=O)n2C = 0.988
O=C(O)CC[N+](=O)[O-] = 1.02
CCC[C@@H]1C[C@@H](C(=O)N[C@H]([C@H]2O[C@H](SC)[C@H](O)[C@@H](O)[C@H]2O)[C@H](C)O)N(C)C1 = 0.952
COC1=CC23CCCN2CCc2cc4c(cc2C3C1O)OCO4 (stereo not drawn) = 1.02

Shift focus to the following entry.
Recorded normalized growth for "O=c1c(O)c(-c2ccccc2)oc2ccccc12" , please?
0.595
